- tested-target: HA-GST-Rheb (GTP-γ-S loaded) activating mTORC1 (Homo sapiens (Human))
- Sequence (Q15382 1-181): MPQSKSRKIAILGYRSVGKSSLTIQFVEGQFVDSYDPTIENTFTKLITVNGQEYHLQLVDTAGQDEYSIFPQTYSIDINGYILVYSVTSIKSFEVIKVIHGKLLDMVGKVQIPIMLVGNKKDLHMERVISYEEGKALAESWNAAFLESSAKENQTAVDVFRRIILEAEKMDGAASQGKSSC
- assay-text: Rheb-dependent in vitro kinase assay (Rheb-IVK; LanthaScreen or Western readout)
- Assay type: biochemical
- condition-summary: Rheb-dependent in vitro kinase assay; read-out: IVK IC50
# key: entry, value: IC50

{"compound": "O=C(O)c1cc2c(Sc3cccc4cccnc34)cc(Cl)cc2[nH]1 [I-87]", "tested-target": "HA-GST-Rheb (GTP-γ-S loaded) activating mTORC1 (Homo sapiens (Human))", "IC50": "10 to 100 µM"}
{"compound": "OCc1cc2c(Cl)cc(Oc3ccccc3)cc2[nH]1 [I-252]", "tested-target": "HA-GST-Rheb (GTP-γ-S loaded) activating mTORC1 (Homo sapiens (Human))", "IC50": "10 to 100 µM"}
{"compound": "O=C(O)c1nc2cc(OCc3ccc(Cl)cc3)c(Cl)c(Cl)c2[nH]1 [I-338]", "tested-target": "HA-GST-Rheb (GTP-γ-S loaded) activating mTORC1 (Homo sapiens (Human))", "IC50": "> 3 µM"}
{"compound": "CN(C)C(=O)c1cccc(Cn2c(C(=O)O)cc3c(Br)cc(Oc4ccccc4)cc32)c1 [I-40]", "tested-target": "HA-GST-Rheb (GTP-γ-S loaded) activating mTORC1 (Homo sapiens (Human))", "IC50": "10 to 100 µM"}
{"compound": "Clc1ccc(Sc2cccc3c2ccn3Cc2ccc(-c3nnn[nH]3)cc2)c(Cl)c1 [I-161]", "tested-target": "HA-GST-Rheb (GTP-γ-S loaded) activating mTORC1 (Homo sapiens (Human))", "IC50": "< 10 µM"}
{"compound": "O=C(O)Cn1c(-c2c[nH]c3ncccc23)nc2cc(Cl)c(Cl)cc21 [I-334]", "tested-target": "HA-GST-Rheb (GTP-γ-S loaded) activating mTORC1 (Homo sapiens (Human))", "IC50": "10 to 100 µM"}
{"compound": "OCc1cc2c(OCc3ccccc3)cc(Cl)cc2[nH]1 [I-294]", "tested-target": "HA-GST-Rheb (GTP-γ-S loaded) activating mTORC1 (Homo sapiens (Human))", "IC50": "> 100 µM"}
{"compound": "CN1CCN(c2ccc(NC(=O)c3cc4c(Sc5ccc(Cl)cc5)cc(Cl)cc4[nH]3)cc2F)CC1 [I-141]", "tested-target": "HA-GST-Rheb (GTP-γ-S loaded) activating mTORC1 (Homo sapiens (Human))", "IC50": "< 10 µM"}
{"compound": "O=C(O)c1cc2cc(SCc3ccc(Cl)cc3)c(Cl)cc2[nH]1 [I-85]", "tested-target": "HA-GST-Rheb (GTP-γ-S loaded) activating mTORC1 (Homo sapiens (Human))", "IC50": "10 to 100 µM"}
{"compound": "OCc1nc2cc(Cl)c(Cl)c(OCC3CCCCN3)c2[nH]1 (stereo not shown) [I-462]", "tested-target": "HA-GST-Rheb (GTP-γ-S loaded) activating mTORC1 (Homo sapiens (Human))", "IC50": "> 100 µM"}
{"compound": "O=C(O)c1cccc(Cn2c(-c3ncco3)nc3cc(Cl)c(Cl)cc32)c1 [I-446]", "tested-target": "HA-GST-Rheb (GTP-γ-S loaded) activating mTORC1 (Homo sapiens (Human))", "IC50": "> 100 µM"}
{"compound": "OCc1nc2c(OCc3cncnc3O)c(Cl)c(Cl)cc2[nH]1 [I-405]", "tested-target": "HA-GST-Rheb (GTP-γ-S loaded) activating mTORC1 (Homo sapiens (Human))", "IC50": "> 100 µM"}
{"compound": "CCn1c(CO)nc2cc(OCc3ccccc3)ccc21 [I-416]", "tested-target": "HA-GST-Rheb (GTP-γ-S loaded) activating mTORC1 (Homo sapiens (Human))", "IC50": "> 100 µM"}
{"compound": "Fc1ccccc1Oc1cccc2[nH]ccc12 [I-288, 4-(2-fluorophenoxy)-1H-indole]", "tested-target": "HA-GST-Rheb (GTP-γ-S loaded) activating mTORC1 (Homo sapiens (Human))", "IC50": "100 to 300 µM"}
{"compound": "Clc1ccc(Cl)c(Oc2cccc3[nH]ccc23)c1 [I-251, 4-(2,5-Dichlorophenoxy)-1H-indole]", "tested-target": "HA-GST-Rheb (GTP-γ-S loaded) activating mTORC1 (Homo sapiens (Human))", "IC50": "10 to 100 µM"}
{"compound": "O=C(O)c1ccc(Cn2ccc3c(Br)cc(Oc4ccccc4)cc32)cc1 [I-164]", "tested-target": "HA-GST-Rheb (GTP-γ-S loaded) activating mTORC1 (Homo sapiens (Human))", "IC50": "10 to 100 µM"}
{"compound": "OCc1ccc(Cn2c(CO)cc3c(Br)cc(Oc4ccccc4)cc32)cc1 [I-166]", "tested-target": "HA-GST-Rheb (GTP-γ-S loaded) activating mTORC1 (Homo sapiens (Human))", "IC50": "> 100 µM"}
{"compound": "OCc1nc2c(OC[C@H]3CCCC[C@@H]3O)c(Cl)c(Cl)cc2[nH]1 (single isomer, unassigned) [I-388]", "tested-target": "HA-GST-Rheb (GTP-γ-S loaded) activating mTORC1 (Homo sapiens (Human))", "IC50": "10 to 100 µM"}
{"compound": "CCn1c(CO)nc2cc(OCc3ccc(F)cc3)c(Cl)cc21 [I-444]", "tested-target": "HA-GST-Rheb (GTP-γ-S loaded) activating mTORC1 (Homo sapiens (Human))", "IC50": "> 100 µM"}

Reference source for all entries: patent US11339144B2
